log10 solubility at 24 h: recorded values
assay: Aqueous solubility in pH 7.4 PBS buffer after 24 hrs by HPLC analysis; assay type: physicochemical
PARAMETER MEASURED: log10 solubility at 24 h (log10 of the value in µM)

>>> print(df.to_string())
                                        smi        parameter_measured  test_value
0  Cc1nc(OCc2cn(-c3ccnc4cc(Cl)ccc34)nn2)nc(-c2ccc([N+](=O)[O-])cc2)c1C(=O)OC(C)C  log10 solubility at 24 h        0.66
1  CCOC(=O)c1c(C)nc(OCc2cn(CCCNc3ccnc4cc(Cl)ccc34)nn2)nc1C  log10 solubility at 24 h        0.90
2  CCOC(=O)c1c(C)nc(OCc2cn(CCNc3ccnc4cc(Cl)ccc34)nn2)nc1-c1ccccc1  log10 solubility at 24 h        0.52
3  Cc1nc(OCc2cn(-c3ccnc4cc(Cl)ccc34)nn2)nc(-c2ccccc2)c1C(=O)OC(C)C  log10 solubility at 24 h        0.25
4  COC(=O)c1c(C)nc(OCc2cn(CCNc3ccnc4cc(Cl)ccc34)nn2)nc1-c1ccccc1  log10 solubility at 24 h        1.05
5  Cc1nc(OCc2cn(CCCNc3ccnc4cc(Cl)ccc34)nn2)nc(-c2ccc([N+](=O)[O-])cc2)c1C(=O)OC(C)C  log10 solubility at 24 h       -0.26
6  Cc1nc(OCc2cn(CCNc3ccnc4cc(Cl)ccc34)nn2)nc(-c2ccccc2[N+](=O)[O-])c1C(=O)OC(C)C  log10 solubility at 24 h        0.36
7  COC(=O)c1c(C)nc(OCc2cn(CCCNc3ccnc4cc(Cl)ccc34)nn2)nc1-c1ccccc1  log10 solubility at 24 h        0.75
8  CCOC(=O)c1c(C)nc(OCc2cn(CCCNc3ccnc4cc(Cl)ccc34)nn2)nc1-c1ccccc1  log10 solubility at 24 h        0.49
9  CCOC(=O)c1c(C)nc(OCc2cn(-c3ccnc4cc(Cl)ccc34)nn2)nc1-c1ccccc1  log10 solubility at 24 h        0.74

----------
experiment: Solubility in n-octanol at pH 7.4 after 24 hrs by HPLC analysis; assay type: physicochemical
Lab note: compare solubility at 24 h against 40 µM. Equal or greater, write 1.0. Smaller, write 0.0.

>>> df
                                         smi  answer_label
 0  Cc1nc(OCc2cn(-c3ccnc4cc(Cl)ccc34)nn2)nc(-c2ccc([N+](=O)[O-])cc2)c1C(=O)OC(C)C           1.0
 1  Cc1nc(OCc2cn(CCCNc3ccnc4cc(Cl)ccc34)nn2)nc(-c2ccccc2[N+](=O)[O-])c1C(=O)OC(C)C           0.0
 2  Cc1nc(OCc2cn(CCNc3ccnc4cc(Cl)ccc34)nn2)nc(-c2ccccc2[N+](=O)[O-])c1C(=O)OC(C)C           0.0
 3  Cc1nc(OCc2cn(-c3ccnc4cc(Cl)ccc34)nn2)nc(-c2ccccc2[N+](=O)[O-])c1C(=O)OC(C)C           0.0
 4  Cc1nc(OCc2cn(-c3ccnc4cc(Cl)ccc34)nn2)nc(-c2ccccc2)c1C(=O)OC(C)C           1.0
 5  CCOC(=O)c1c(C)nc(OCc2cn(CCNc3ccnc4cc(Cl)ccc34)nn2)nc1C           0.0
 6  COC(=O)c1c(C)nc(OCc2cn(-c3ccnc4cc(Cl)ccc34)nn2)nc1-c1ccccc1           0.0
 7  CCOC(=O)c1c(C)nc(OCc2cn(-c3ccnc4cc(Cl)ccc34)nn2)nc1-c1ccccc1           1.0
 8  Cc1nc(OCc2cn(CCCNc3ccnc4cc(Cl)ccc34)nn2)nc(-c2ccccc2)c1C(=O)OC(C)C           1.0
 9  Cc1nc(OCc2cn(CCNc3ccnc4cc(Cl)ccc34)nn2)nc(-c2ccccc2)c1C(=O)OC(C)C           1.0
10  Cc1nc(OCc2cn(CCNc3ccnc4cc(Cl)ccc34)nn2)nc(-c2ccc([N+](=O)[O-])cc2)c1C(=O)OC(C)C           1.0
11  Cc1nc(OCc2cn(CCCNc3ccnc4cc(Cl)ccc34)nn2)nc(-c2ccc([N+](=O)[O-])cc2)c1C(=O)OC(C)C           0.0
12  CCOC(=O)c1c(C)nc(OCc2cn(CCCNc3ccnc4cc(Cl)ccc34)nn2)nc1C           0.0
13  CCOC(=O)c1c(C)nc(OCc2cn(CCCNc3ccnc4cc(Cl)ccc34)nn2)nc1-c1ccccc1           1.0
14  CCOC(=O)c1c(C)nc(OCc2cn(-c3ccnc4cc(Cl)ccc34)nn2)nc1C           0.0
15  COC(=O)c1c(C)nc(OCc2cn(CCNc3ccnc4cc(Cl)ccc34)nn2)nc1-c1ccccc1           1.0
16  COC(=O)c1c(C)nc(OCc2cn(CCCNc3ccnc4cc(Cl)ccc34)nn2)nc1-c1ccccc1           0.0
17  CCOC(=O)c1c(C)nc(OCc2cn(CCNc3ccnc4cc(Cl)ccc34)nn2)nc1-c1ccccc1           0.0

Source listed as ChEMBL document CHEMBL4145548.
